Tested on: HCT-116
Assay: NCI tumour cell line growth inhibition, 48 h
Calls of active or inactive are those of the source. No stated cut-off is given here; in the data, active = GI50 up to about 1.1 µM and inactive = higher.
The categories you may choose from are T for active, F for inactive

Past entries and their recorded results:
COMPOUND | CATEGORY_LABEL
Nc1n[c-](N)[n+](=O)c(N)c1NCO | F
N#Cc1c(=O)c2cccnc2n2c1[nH]c1ccccc12 | F
CC(=O)OCC1C(C(C)OC(C)=O)CCC2C1CCC1(C)C(OC(C)=O)CCC21 (configuration not stated) | F
O=S(=O)(N1CCCCN(S(=O)(=O)C(F)(F)F)CCCN(S(=O)(=O)C(F)(F)F)CCCN(S(=O)(=O)C(F)(F)F)CCCCN(S(=O)(=O)C(F)(F)F)CCCN(S(=O)(=O)C(F)(F)F)CCC1)C(F)(F)F | F
CC1CCCC(C(=O)CC2CC(=O)NC(=O)C2)C1=O (configuration not stated) | F
N#CCCN(CCC#N)c1ccc(/C=N\c2nc(-c3ccccc3)cs2)cc1 | F

Please share the test call associated with `CCOC(=O)[C@@H]1[C@@H]2NC(=O)N[C@@]1(C)Oc1ccccc12` . F

For `CCOC(=O)/C1=C(\C)N(Cc2ccccc2)C(=O)c2ccccc2C(=O)c2c(O)ccc(O)c21` , which call appears in the assay record? F

Record request — test call for N#CC(C(=N/NC(N)=S)/C(=N\NC(N)=S)C(C#N)c1ccccc1)c1ccccc1 (configuration not stated) F

For `Cn1c(=O)nc2n(CCO)c(-c3ccccc3)c(-c3ccccc3)nc-2c1=O` , which call appears in the assay record? F

Each compound tested received a call. Report the one for `COc1ccc2c(c1)c1ccc3c(c1n2C)C(=O)C=CC3=O` . F

Test call for this compound, please: `O=C1C=C(Nc2ccccc2C(=O)c2ccccc2)c2ccccc2C1=O` F

Please share the test call associated with `CC(C)CC(=O)NC(NC(C)C)(C(F)(F)F)C(F)(F)F` . F

How was `O=C(CSC(=S)N1CCOCC1)Nc1nc2c(s1)CCCC2` classified in this test? F

What was the test verdict on `CC(=O)OCc1c(O)nc2c(c1O)-c1ccccc1CC2` ? F

---

Test system: KM-20L2
Experiment: NCI tumour cell line growth inhibition, 48 h
Active and inactive are the calls of the source. No stated cut-off is given here; in the data, active = GI50 up to about 1.1 µM and inactive = higher.
Overview of recorded GI50 for various compounds

COMPOUND | TEST_VALUE
C/C(CC(=O)Nc1cc(C)ccc1C)=N/N=C(N)N | > 100 µM (inactive)
[O-]c1c2cc(-[n+]3c(-c4ccccc4)cc(-c4ccccc4)cc3-c3ccccc3)cc1COCCOCCOCCOCCOC2 | 31.3 µM (inactive)
O=C(N/N=C1/C(=O)N(c2ccc(Cl)cc2Cl)C(=O)C(=O)C1c1nc2ccccc2o1)c1ccccc1O (configuration not stated) | > 100 µM (inactive)
Cc1c2ccncc2cc2c1sc1ccncc12 | 5.5 µM (inactive)
O=S(=O)(O)SC/C=C\CSS(=O)(=O)O | > 100 µM (inactive)
COc1c(Br)cc(CC(N)=O)c(O)c1Br | > 100 µM (inactive)
O=[N+]([O-])c1ccc2[nH]c3c(-c4ccccc4)nccc3c2c1 | 27.6 µM (inactive)
O=C(CCc1nnc2s/c(=C\c3ccc(Cl)cc3Cl)c(=O)n12)Nc1cc(Cl)c(Cl)cc1Cl | > 10 µM (inactive)
COc1ccc(/C=C2\CCCCC2=O)cc1 | > 100 µM (inactive)
N#CC(C(=N/NC(N)=S)/C(=N\NC(N)=S)C(C#N)c1ccccc1)c1ccccc1 (configuration not stated) | > 10 µM (inactive)

Query: GI50; subject: `O=c1c2cc3c(cc2c2cccc4c2n1CCC4)OCO3` 45.7 µM (inactive)

Need GI50 of COc1nc(SC)nc2c1cnn2C1OC(C(O)CO)C(OC)C1O (configuration not stated) , thanks. > 85.9 µM (inactive)

Taken from ChEMBL document CHEMBL1201862.
